Assay: Cmax in rabbit plasma at 58 mg/kg infused every 12 hrs for 4 days
Type: ADME, organism-based, Oryctolagus cuniculus
Set-up: dose 58 mg/kg
Details: iv
observed property: Cmax

Asked: Give the measured Cmax of CC(=O)NC[C@H]1CN(c2ccc(N3CCOCC3)c(F)c2)C(=O)O1 [LINEZOLID] .
Given back: 19600 ng/mL

---

Assay: Half life in rabbit plasma at 58 mg/kg infused every 12 hrs for 4 days
Assay type: ADME, organism-based, Oryctolagus cuniculus
Design: dose 58 mg/kg
Conditions: iv
observed property: half-life (h)
Reply numerically in h, unit not repeated.

Asked: Give the measured half-life of CC(=O)NC[C@H]1CN(c2ccc(N3CCOCC3)c(F)c2)C(=O)O1 [LINEZOLID] .
Given back: 3.3

Origin of the recorded values: ChEMBL document CHEMBL1143426
